Assign ELISA (T/B) to each entry below.
Molecular target: T1, human plasma kallikrein (human, UniProt P03952 20-390; P03952 391-638)
T1 construct: also called pKal; Human pKal
T1 sequence (P03952 20-390, chain 1 of 2): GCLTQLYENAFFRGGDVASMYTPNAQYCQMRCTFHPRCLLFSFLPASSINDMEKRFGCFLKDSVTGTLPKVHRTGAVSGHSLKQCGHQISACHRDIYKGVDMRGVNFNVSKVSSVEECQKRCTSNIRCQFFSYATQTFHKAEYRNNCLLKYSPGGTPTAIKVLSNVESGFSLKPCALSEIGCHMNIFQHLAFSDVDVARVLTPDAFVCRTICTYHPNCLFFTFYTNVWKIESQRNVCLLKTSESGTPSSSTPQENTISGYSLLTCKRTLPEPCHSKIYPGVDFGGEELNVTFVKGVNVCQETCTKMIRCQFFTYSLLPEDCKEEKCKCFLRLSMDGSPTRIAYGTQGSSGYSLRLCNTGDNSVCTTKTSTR
T1 sequence (P03952 391-638, chain 2 of 2): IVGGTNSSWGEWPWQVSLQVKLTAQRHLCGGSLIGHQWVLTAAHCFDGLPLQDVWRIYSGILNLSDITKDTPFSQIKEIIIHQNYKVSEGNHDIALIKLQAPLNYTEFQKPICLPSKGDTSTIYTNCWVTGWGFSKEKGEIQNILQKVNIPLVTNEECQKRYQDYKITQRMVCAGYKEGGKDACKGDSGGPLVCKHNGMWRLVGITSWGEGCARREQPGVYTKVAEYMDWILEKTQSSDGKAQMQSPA
Assay: ELISA, biotinylated pKal signal over streptavidin background
From the text: Abbreviations used: “T/B” is the ELISA signal obtained using of the “target” (biotinylated plasma kallikrein) divided by the ELISA signal of the “background” (streptavidin); both of which were coated on microtiter plates, “nd” is not determined. The symbol “q” refers to the amber suppressible stop codon (TAG), which is translated as glutamine (Q) in strains of E. coli such as the TG1 cells that were used to express the Fab fragments.
One number for each entry, in T/B.

binder="M27-G04 (Fab, V domains shown, HC as printed runs into CH1) VH: EVQLLESGGGLVQPGGSLRLSCAASGFTFSAYYMVWVRQAPGKGLEWVSYISPSGGQTQYADSVKGRFTISRDNSKNTLYLQMNSLRAEDTAVYYCAREAISSSSFDYWGQGTLVTVSS VL: DIQMTQSPSSLSASVGDRVTITCRASQRISYYLTWYQQKPGKVPKLLIYAASSLESGVPSRFSGSGSGTDFTLTISNLQPEDFATYYCQQAFSTPFTFGGGTKVEIK" unit_text=T/B observed_measurement=4.1

In the following, a different binder is considered.
// ELISA (T/B) lookup, binder = M8-A09 (Fab, V domains shown, HC as printed runs into CH1) VH: EVQLLESGGGLVQPGGSLRLSCAASGFTFSTYFMLWVRQAPGKGLEWVSSIYPSGGNTVYADSVKGRFTISRDNSKNTLYLQMNSLRAEDTAVYYCARAASPVRNYYYYGMDVWGQGTTVTVSS VL: QCELTQPPSESVSPGQTANITCSGDKLGNKYAYWYQQKPGQSPVLVIYQDNNRPSGIPERFSGSNSGNTATLTISGTQAIDEANYYCQAWDSRTVVFGGGTKLTVL , result: 5.4
